Data provenance is a melting point compilation (Tetko et al.; mined from patent text by program, amines drawn as free bases though some values may be those of a salt).

property: melting point

Consider the reported melting point for these compounds:
CN(C)C1(C(N)=O)CCCCC1; 65 to 69 °C
Cc1oc(-c2ccccc2)nc1CCOc1ccc(C=O)cn1; 99 to 100 °C
COC(=O)C1=C(O)C(=O)O[C@@H]1C; 94 to 96 °C
COCCN(C)Cc1c(-c2ccc(N)cc2)sc2c1c(=O)n(-c1ccc3c(c1)OCO3)c(=O)n2Cc1c(F)cccc1F; 200 to 202 °C
CC(=O)NNC(COCc1cc(C)cc(C)c1)C1c2ccccc2CCc2ccccc21 (stereo not given); 109 to 111 °C

Lab note: each compound below needs its melting point filled in.
1. Cn1ccnc1N1CCC(c2ccc([N+](=O)[O-])cc2)CC1
2. COc1cccc2c(NCc3ccccc3C)nccc12

Response:
["155 to 156 °C", "121 to 125 °C"]

Your task in this section: give melting point for each listed record.
1. CC(C)c1cc(-c2ccc(F)cc2)n(-c2ccccn2)n1
2. OC1CCCN(CCCOc2ccc3cc(-c4n[nH]c5cc(-c6ccccc6)sc45)[nH]c3c2)C1 (stereo not given)
3. O=C1/C(=C/c2ccccc2)C(Br)c2ccccc21 (stereo not given)

Response:
1. 80 to 81 °C
2. 213 to 216 °C
3. 118 to 119 °C
